fold increase overview
Assay: enhancers of HSV replication in host cells, fold increase, host cell viability (AID 1956)
Details: HSV replication augmentation in cells; measured here: primary screen fold increase 10 uM, at 10 µM, stronger effect = higher value
About 10 (0.005%) of roughly 220,000 compounds were called active. Not all results are given here.
Outcome Measure: fold increase

molecule=COC(=O)c1sccc1NN1C(=O)c2ccccc2C1=O obs_value=1.18
molecule=O=C1N[C@@H](Cc2ccccc2)C(=O)N2[C@@H]3N(S(=O)(=O)c4ccc(F)cc4)c4ccccc4[C@]3(Br)C[C@@H]12 obs_value=0.86
molecule=CCn1c2ccccc2c2cc(NC(=O)Nc3ccc([N+](=O)[O-])cc3C)ccc21 obs_value=0.73
molecule=Cc1nnc(Nc2ccccc2F)s1 obs_value=0.86
molecule=CCOC(=O)c1cccc(NC(=O)c2ccc(F)cc2F)c1 obs_value=0.77
molecule=O=C(Nc1nnc(COc2ccccc2)s1)Nc1ccccc1F obs_value=0.9
molecule="COc1ccc(N2C(=O)C3C(C2=O)C(C(=O)c2ccccc2)N2CCCC32)cc1 (stereo unspecified)" obs_value=1.02
molecule=O=C(NCc1ccccc1)C1=C[C@@H](c2ccccc2)C[C@@H](OCCCCO)O1 obs_value=0.94
molecule=Cc1ccccc1NC(=O)Nc1ccccc1N1CCCCC1 obs_value=0.85
molecule=CCCOc1ccc(Cl)cc1Nc1nc(NCCO)nc(N2CCCC2)n1 obs_value=0.59
molecule="O=C(CC(c1ccccc1)c1cc(Cl)ccc1O)NCCN1CCOCC1 (stereo unspecified)" obs_value=0.85

* * *

Assay: enhancers of HSV replication in host cells, fold increase, host cell viability (AID 1956)
Details: HSV replication augmentation in cells; measured here: primary screen fold increase 10 uM, at 10 µM, stronger effect = higher value
The whole screen tested about 220,000 compounds, of which about 10 (0.005%) were called active. The list is a sample of the results.
Outcome Measure: fold increase

structure_notation=Clc1ccc2nc(-c3ccccc3)nc(C(Cl)Cl)c2c1 outcome_measure="fold increase" obs_value=0.64
structure_notation=O=C(O)/C=C/c1ccc2c(c1)OCCO2 outcome_measure="fold increase" obs_value=0.95
structure_notation=CC1(C)S[C@@H]2[C@H](N=CN3CCCCCC3)C(=O)N2[C@H]1C(=O)O outcome_measure="fold increase" obs_value=0.85
structure_notation=CCCC[C@@H]1CN=C(N)N1CCc1cccc(F)c1 outcome_measure="fold increase" obs_value=0.84
structure_notation=O=C1c2ccccc2S(=O)(=O)c2cc(N3CCN(c4ccccn4)CC3)ccc21 outcome_measure="fold increase" obs_value=0.92
structure_notation=COC(=O)c1c(C)cc(O)c(C)c1O outcome_measure="fold increase" obs_value=0.79
structure_notation=O=[N+]([O-])c1ccc(N/N=C/c2ccccc2)cc1 outcome_measure="fold increase" obs_value=1.08
structure_notation=CC(=O)NC(=S)Nc1ccc(NC(=O)c2cccnc2)cc1 outcome_measure="fold increase" obs_value=0.97
structure_notation=N#CCc1c(C#N)c(N)nc(N2CCCC2)c1C#N outcome_measure="fold increase" obs_value=0.85

* * *

fold increase overview
Test: enhancers of HSV replication in host cells, fold increase, host cell viability (AID 1956)
Conditions: HSV replication augmentation in cells; measured here: primary screen fold increase 10 uM, at 10 µM, stronger effect = higher value
Screen size: about 220,000 compounds; about 10 (0.005%) were called active. These entries were drawn from the full list.
Outcome Measure: fold increase

compound=COc1ccc(CNC(=O)[C@@H]2CC=C[C@@H]3CCN(C4CC4)C(=O)[C@@H]32)cc1 obs_value=0.88
compound=CC(C)=CCc1c(O)c(CC=C(C)C)c2occ(-c3ccc(O)cc3)c(=O)c2c1O obs_value=0.74
compound=O=C(NC1CC1)C1=C[C@H](c2coc3ccccc3c2=O)C[C@H](OCCCCO)O1 obs_value=0.73
compound=CC#CC[N+](C)(C)CCCCCC obs_value=1.26
compound=COc1ccc2nc(NC(=O)NC3CCCCC3)sc2c1 obs_value=0.94
compound="C=CCC(Nc1ccccc1)c1cccc(OC)c1OC (stereo not given)" obs_value=0.99
compound=O=C(O)CCn1c(O)c(C=C2N=c3ccccc3=N2)sc1=S obs_value=1.18
compound=Cc1nc(Cl)c(C#N)c2c1CCCC2 obs_value=0.96
compound=CN=C1C=C/C(=N/N=c2\ccn(O)cc2C)C=C1C obs_value=1.05
compound=CCOC(=O)C1=NN(c2ccc(Cl)cc2)/C(=C/C2=NCCc3cc(OC)c(OC)cc32)S1 obs_value=1.18
compound="C=CC(COCc1ccccc1)N(Cc1ccccc1)S(=O)(=O)c1ccccc1Br (stereo not given)" obs_value=1.29
compound="CC1CC(NC(=O)/C(C#N)=C/c2ccc[nH]2)CC(C)(C)C1 (stereo not given)" obs_value=0.99
compound=O=C(CCNc1n[nH]c(=O)[nH]c1=O)N/N=C\c1ccc(Br)cc1 obs_value=1
compound="O=C(N/N=C\\c1cc(Br)c(Br)o1)C1COc2ccccc2O1 (stereo not given)" obs_value=1.28
compound=C#CCNC(=O)[C@H](Cc1ccc(C(=O)c2ccccc2)cc1)NC(=O)OC(C)(C)C obs_value=0.7
compound=CCOC(=O)/C=C/c1ccc(C(F)(F)F)cc1S(=O)(=O)NC(C)(C)C obs_value=0.67
compound=C=C(C)CNC(=S)Nc1ccc(S(=O)(=O)Nc2cnc3ccccc3n2)cc1 obs_value=0.94
compound=COCCn1c(SCC(=O)c2[nH]c(C)c(C(C)=O)c2C)nc2ccccc2c1=O obs_value=0.86
compound=COc1ccc(-c2nc3c(s2)CCc2onc(-c4ccc(Br)cc4)c2-3)cc1 obs_value=0.69
compound="COC(=O)c1ccc(C(NC(=O)OCc2ccccc2)/C(F)=C/[C@@H](C)C(=O)O)cc1 (stereo not given in full)" obs_value=0.86
compound="CCC1(CC)C(=O)C2=C3C1[C@H](C(=O)OC)C=C(C(=O)OC)C[C@H]3[C@H]1C(=O)N(Cc3ccccc3)C(=O)[C@H]1[C@H]2C (stereo not given in full)" obs_value=0.96
compound=O=C(CCl)Nc1ccc(Sc2ccc(NC(=O)CCl)cc2)cc1 obs_value=0.77
compound=O=c1[nH]snc1-c1c(Cl)cccc1Cl obs_value=0.9
compound=CCOC(=O)c1nnn2c1nc(N1CCN(c3ccccc3)CC1)c1ccccc12 obs_value=1.01
compound=CN(C)CCCN(Cc1cc2cc3c(cc2[nH]c1=O)OCCO3)C(=O)NC1CCCCC1 obs_value=0.89
compound=O=c1[nH]c(CSc2ccccc2)nc2c1oc1ccccc12 obs_value=1.16
compound=Nc1nc(Nc2ccccc2)nc(NCCO)c1[N+](=O)[O-] obs_value=0.82
compound=COC(=O)c1cc(NC(=O)c2cc(C(C)(C)C)nn2Cc2cccc(C)c2)ccc1N1CCOCC1 obs_value=0.93
compound="COCCN(C(=S)Nc1cccc(Cl)c1C)C(C)c1ccco1 (stereo not given)" obs_value=1.01
compound=COC(=O)C1=C[C@@H](C(=O)OC)[C@@H]2C3=C(C(=O)[C@]2(C)NC(=O)c2ccccc2)[C@H](C)n2c(=O)n(C)c(=O)n2[C@@H]3C1 obs_value=0.77
compound=CCOC(=O)c1ccc(NC(=O)c2c(NCc3ccccc3)[nH]c(=O)[nH]c2=O)cc1 obs_value=0.87
compound="C#CCOCCOCCOCCNc1nc(N2CCN(C(=O)C([C@@H](C)CC)n3cc(C(N)COC(=O)C(F)(F)F)nn3)CC2)nc(N2CCN(C(=O)[C@H](Cc3ccc(O)cc3)n3cc(C(N)[C@H](C)CC)nn3)CC2)n1 (stereo not given in full)" obs_value=0.87
compound=CC(C)Oc1ccc(CCC(=O)NNC(=S)NCc2ccccc2)cc1 obs_value=1.13
compound=Cc1ccc(-c2nc(SCC(=O)Nc3ccccc3OC(F)F)c3c(C)c(C(=O)O)sc3n2)cc1 obs_value=0.92
compound=C=C1CCN([C@@H](Cc2ccccc2)C(=O)N2CCOCC2)S(=O)(=O)c2ccccc21 obs_value=0.89
compound="CCOC(=O)C1Nc2ccc(C(F)(F)F)cc2C2C=CCC12 (stereo not given)" obs_value=0.82
compound="Cc1nc(-c2ccc(Cl)cc2)sc1C1(C)CC(c2ccc(Br)cc2)=NO1 (stereo not given)" obs_value=0.87
compound=CN(C)/C=C(/C(=O)c1ccc(Cl)c(Cl)c1)c1nnnn1-c1ccccc1 obs_value=1.22
compound=COc1ccc(CN2CC[C@H]3C=CC[C@@H](C(=O)N4CCOCC4)[C@H]3C2=O)cc1OC obs_value=0.78
compound=O=C1CCCC(O)=C1N=Nc1ccc(S(=O)(=O)N2CCOCC2)cc1 obs_value=0.97
